target entity: human EHMT2 913-1193 (Homo sapiens, UniProt Q96KQ7)
Construct: recombinant purified human EHMT2 913-1193, Viva; purchased Viva
experiment description: EHMT2 enzyme assay on histone peptide substrate (EHMT2 PEP)
Type: biochemical
details: Table VI; read-out: EHMT2 PEP IC50
pIC50: −log10 of the molar value.
What pIC50 was measured for each of the following?

Reference set (3 entries):
COc1cc2c(C3CCN(C(C)=O)CC3)cc(C)nc2cc1OCCCN1CCCC1 ... 6.00 to 7.00
CNc1ccnc(Nc2ccc(OC)c(OC[C@@H]3CNCCO3)c2)n1 ... < 5.00
CNc1cc(C)nc(Nc2ccc(OC)c(C#CCN3CCOCC3)c2)n1 ... < 5.00

State the recorded pIC50 for every item in the following list.
1. CCN1CC[C@@H](COc2cc(Nc3nccc(NC)n3)ccc2OC)C1
2. CCS(=O)(=O)N1CCC(c2cc(C)nc3cc(OCCCN4CCCC4)c(OC)cc23)CC1
3. COc1cc2c(C)cc(N3CCOCC3)nc2cc1OCCCN1CCCC1
4. CNc1cc(C)nc(Nc2ccc(OC)c(OC[C@H](O)CNC3CCC3)c2)n1
5. CNc1cc(C)nc(Nc2cc(OCCCN3CCCC3)n3cnnc3c2)n1
6. COc1cc2c(C3CCN(C)CC3)cc(N3CCCC3)nc2cc1OCCCN1CCCC1
7. CCN1CC([C@H](C)Oc2cc(Nc3nc(C)cc(NC)n3)ccc2OC)C1

Found:
1: 6.00 to 7.00; 2: 6.00 to 7.00; 3: 5.00 to 6.00; 4: 6.00 to 7.00; 5: < 5.00; 6: > 7.00; 7: 6.00 to 7.00

State the recorded pIC50 for every item in the following list.
1. COc1cc2c(C)cc(N3CCNCC3)nc2cc1OCCCN1CCCC1
2. CNc1cc(C)nc(Nc2cc(OCCCN3CCCC3)c3nc(C)cn3c2)n1
3. CNc1ccnc(Nc2ccc(OC)c(OC[C@H](C)CN3CCC3)c2)n1
4. CNc1ccnc(Nc2cnc(OC)c(OCCCN3CCC3)c2)n1
5. CNc1cc(C)nc(Nc2ccc(OC)c(OC[C@@H]3CCN(C(C)C)C3)c2)n1

Found:
1. 6.00 to 7.00
2. 5.00 to 6.00
3. 6.00 to 7.00
4. 6.00 to 7.00
5. 6.00 to 7.00

// `CCN1CC(NCc2cc(Nc3nc(C)cc(NC)n3)ccc2OC)C1` : pIC50 value = < 5.00

---

target entity: EHMT1 (Homo sapiens, UniProt Q9H9B1)
Sequence (Q9H9B1 whole entry, species assumed): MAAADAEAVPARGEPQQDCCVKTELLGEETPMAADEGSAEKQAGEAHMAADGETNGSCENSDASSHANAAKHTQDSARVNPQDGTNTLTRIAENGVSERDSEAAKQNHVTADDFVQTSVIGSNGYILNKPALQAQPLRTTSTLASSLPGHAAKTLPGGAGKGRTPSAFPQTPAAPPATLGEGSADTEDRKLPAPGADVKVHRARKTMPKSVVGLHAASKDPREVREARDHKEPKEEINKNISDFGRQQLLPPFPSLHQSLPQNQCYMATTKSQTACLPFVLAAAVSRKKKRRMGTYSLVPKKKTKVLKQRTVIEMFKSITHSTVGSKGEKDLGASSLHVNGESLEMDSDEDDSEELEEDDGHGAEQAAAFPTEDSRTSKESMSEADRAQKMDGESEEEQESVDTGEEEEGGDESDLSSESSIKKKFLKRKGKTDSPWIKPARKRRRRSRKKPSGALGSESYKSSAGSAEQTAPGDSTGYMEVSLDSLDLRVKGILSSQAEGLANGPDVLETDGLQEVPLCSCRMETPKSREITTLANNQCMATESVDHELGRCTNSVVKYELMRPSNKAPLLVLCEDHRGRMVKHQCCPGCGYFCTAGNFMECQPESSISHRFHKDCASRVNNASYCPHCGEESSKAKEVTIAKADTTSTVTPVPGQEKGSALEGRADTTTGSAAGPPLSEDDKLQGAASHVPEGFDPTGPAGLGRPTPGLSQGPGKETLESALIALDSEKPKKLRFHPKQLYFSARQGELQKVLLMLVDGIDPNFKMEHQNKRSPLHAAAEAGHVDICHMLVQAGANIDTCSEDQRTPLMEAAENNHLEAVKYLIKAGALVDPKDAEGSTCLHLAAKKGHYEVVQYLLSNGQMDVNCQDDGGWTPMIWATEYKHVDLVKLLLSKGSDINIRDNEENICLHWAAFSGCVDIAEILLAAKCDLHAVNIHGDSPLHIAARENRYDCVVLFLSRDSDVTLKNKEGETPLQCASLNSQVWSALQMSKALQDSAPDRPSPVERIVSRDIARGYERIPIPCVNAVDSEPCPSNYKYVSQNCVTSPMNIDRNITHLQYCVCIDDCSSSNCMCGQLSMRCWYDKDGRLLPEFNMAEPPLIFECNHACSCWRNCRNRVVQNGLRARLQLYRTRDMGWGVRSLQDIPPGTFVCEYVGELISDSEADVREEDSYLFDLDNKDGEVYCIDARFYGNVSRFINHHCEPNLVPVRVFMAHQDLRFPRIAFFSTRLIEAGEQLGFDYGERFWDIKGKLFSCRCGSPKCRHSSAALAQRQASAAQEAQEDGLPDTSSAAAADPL
experiment description: EHMT1 enzyme assay on peptide substrate (EHMT1 PEP)
Type: biochemical
details: Table II; read-out: EHMT1 PEP (IC50 μM)
value kind: IC50

Reference set (3 entries):
COc1ccc(Nc2nccc(NCc3ccccn3)n2)cc1OCCCN1CCCC1 ... 0.1 to 1 µM
COc1ccc(Nc2nccc(NCC3CCN(C(C)=O)CC3)n2)cc1OCC(C)CN1CCCC1 (stereo not shown) ... 1 to 10 µM
COc1ccc(Nc2nccc(CNC3CCN(C(C)=O)CC3)n2)cc1OCCCN1CCCC1 ... 0.1 to 1 µM

// `COc1ccc(Nc2cnnc(NCC3CCN(C(C)=O)CC3)c2)cc1OCCCN1CCCC1` : IC50 value = 1 to 10 µM

---

target entity: EHMT2 (Homo sapiens)
Construct: host or cells: MDA-MB-231
experiment description: MDA-MB-231 H3K9me2 in-cell Western assay (EHMT2 ICW)
Type: cell-based
details: H3K9me2 in-cell Western, MDA-MB-231 cells; read-out: EHMT2 ICW (IC50 μM)
What IC50 was measured for each of the following?

Reference set (2 entries):
CNc1cc(C)nc(Nc2ccc(OC)c(O)c2)n1 ... > 10 µM
COc1ncc(Nc2nc(C)cc(NCC3CCOCC3)n2)cc1OC[C@@H]1CCN(C2CCC2)C1 [Compound 594] ... 0.1 to 1 µM

State the recorded IC50 for every item in the following list.
1. CNc1cc(C)nc(Nc2ccc(OC)c(OC[C@H]3C[C@@H](N(C)C)C3)c2)n1
2. CNc1cc(C(C)C)nc(Nc2ccc(OC)c(OCCCN3CCCC3)c2)n1
3. CCCC1(Nc2nccc(NC)n2)CCCNC1 (stereo not drawn)
4. CCN1CC[C@@H](COc2cc(Nc3nc(C)cc(NC)n3)ccc2OC)C1
5. CNc1cc(C)nc(Nc2ccc(OC)c(OCCCN3CCC4(CC4)C3)c2)n1
6. COc1cnc(Nc2cccc3[nH]ncc23)cc1OCCCN1CCCC1

Found:
1 to 10 µM
0.1 to 1 µM
> 10 µM
0.1 to 1 µM
1 to 10 µM
> 10 µM

The measured IC50 that `CNc1nc(C2CCN(C(C)C)CC2)c2cc(OC)c(OCCCN3CCCC3)cc2n1` showed for EHMT2 (Homo sapiens) is 1 to 10 µM

---

What IC50 was measured for each of the following?
target entity: EHMT2 (Homo sapiens, UniProt Q96KQ7)
Construct: host or cells: MDA-MB-231
Sequence (Q96KQ7 whole entry): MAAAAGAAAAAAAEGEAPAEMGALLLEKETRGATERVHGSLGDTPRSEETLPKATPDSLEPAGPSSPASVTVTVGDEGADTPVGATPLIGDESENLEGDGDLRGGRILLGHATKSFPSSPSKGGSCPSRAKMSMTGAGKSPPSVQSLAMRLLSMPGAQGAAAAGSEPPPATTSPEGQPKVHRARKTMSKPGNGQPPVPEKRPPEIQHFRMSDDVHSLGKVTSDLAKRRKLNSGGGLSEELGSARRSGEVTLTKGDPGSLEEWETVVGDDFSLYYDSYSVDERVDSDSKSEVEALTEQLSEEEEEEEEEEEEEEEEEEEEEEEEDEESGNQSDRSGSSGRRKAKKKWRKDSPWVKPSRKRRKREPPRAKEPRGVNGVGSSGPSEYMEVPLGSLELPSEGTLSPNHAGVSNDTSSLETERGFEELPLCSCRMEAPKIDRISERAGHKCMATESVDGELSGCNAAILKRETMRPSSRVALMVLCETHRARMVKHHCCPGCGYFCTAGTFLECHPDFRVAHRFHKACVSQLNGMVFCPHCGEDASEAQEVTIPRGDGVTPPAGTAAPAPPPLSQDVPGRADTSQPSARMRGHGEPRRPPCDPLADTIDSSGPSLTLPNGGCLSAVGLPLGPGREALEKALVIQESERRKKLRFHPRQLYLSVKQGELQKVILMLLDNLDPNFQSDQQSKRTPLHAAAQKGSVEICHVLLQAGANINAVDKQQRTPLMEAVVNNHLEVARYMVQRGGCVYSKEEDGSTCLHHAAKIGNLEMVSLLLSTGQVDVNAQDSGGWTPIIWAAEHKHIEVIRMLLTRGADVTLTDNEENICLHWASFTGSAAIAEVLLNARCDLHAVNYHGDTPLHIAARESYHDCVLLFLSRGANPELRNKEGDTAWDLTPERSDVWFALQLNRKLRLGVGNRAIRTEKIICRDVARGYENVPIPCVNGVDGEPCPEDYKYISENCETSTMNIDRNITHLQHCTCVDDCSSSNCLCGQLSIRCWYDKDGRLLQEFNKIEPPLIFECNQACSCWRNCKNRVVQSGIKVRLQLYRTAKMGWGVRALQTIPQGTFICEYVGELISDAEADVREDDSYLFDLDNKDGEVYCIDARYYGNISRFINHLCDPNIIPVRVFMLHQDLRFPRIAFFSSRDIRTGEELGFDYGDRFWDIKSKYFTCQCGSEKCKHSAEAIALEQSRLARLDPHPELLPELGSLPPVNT
experiment description: MDA-MB-231 H3K9me2 in-cell Western assay (EHMT2 ICW)
Type: cell-based
details: H3K9me2 in-cell Western, MDA-MB-231 cells; read-out: EHMT2 ICW (IC50 μM)

Reference set (2 entries):
c1nc(NC2CCNCC2)ncc1OCC1CCN(C2CC2)C1 (centres unmarked) ... > 10 µM
CNc1cc(C)nc(Nc2ccc(OC)c(OCC3CN(C4CCOC4)C3)c2)n1 (centres unmarked) ... > 10 µM

State the recorded IC50 for every item in the following list.
1. CNc1cc(C)nc(Nc2ccc(OC)c(OCC3CCN(C4CCCC4)C3)c2)n1 (centres unmarked)
2. CNc1ccnc(Nc2cc(OCCCN3CCCC3)c3cn[nH]c3c2)n1
3. CCN1CC[C@@H](COc2cc(Nc3nc(C)cc(NC)n3)cnc2OC)C1
4. COc1cc2c(C3CCN(C)CC3)nc(N3CCCC3)nc2cc1OCCCN1CCCC1
5. COc1cnc(Nc2nc(C)cc3[nH]ccc23)cc1OCC1CCN(C2CC2)C1 (centres unmarked)

Found:
> 10 µM
> 10 µM
0.1 to 1 µM
0.1 to 1 µM
< 0.1 µM

State the recorded IC50 for every item in the following list.
1. COc1ncc(Nc2nc(C)cc(NCC3CCOCC3)n2)cc1OC[C@@H]1CCN(C(C)C)C1
2. CCN1CC(C(C#N)Oc2cc(Nc3nc(C)cc(NC)n3)ccc2OC)C1 (centres unmarked)
3. CCN1CC(COc2cc(Nc3nccc4[nH]ccc34)ncc2OC)C1
4. CNc1cc(C)nc(Nc2cnc(OC)c(OCCCN3CC4CC4C3)c2)n1 (centres unmarked)
5. CNc1cc(C)nc(Nc2ccc(OC)c(OCCC3CN(C)C3)c2)n1
6. CNc1cc(C)nc(Nc2ccc(OC)c(OCCCN3CCC3)c2)n1
7. CNc1ccnc(NC2(C)CCNCC2)n1

Found:
1. 0.1 to 1 µM
2. 1 to 10 µM
3. > 10 µM
4. 0.1 to 1 µM
5. > 10 µM
6. < 0.1 µM
7. > 10 µM

---

target entity: human EHMT2 913-1193 (Homo sapiens, UniProt Q96KQ7)
Construct: recombinant purified human EHMT2 913-1193, Viva; purchased Viva
experiment description: EHMT2 enzyme assay on histone peptide substrate (EHMT2 PEP)
Assay type: biochemical
details: Table III; read-out: EHMT2 PEP (IC50 μM)
value kind: IC50

Reference set (8 entries):
CNc1ccnc(Nc2cccc(N3CCC(N(C)C)C3=O)c2)n1 (stereo not drawn) ... > 10 µM
CNc1ccnc(Nc2ccc(OC)c(OCCCN3CCCC3)c2)c1 ... 0.1 to 1 µM
CNc1ccnc(Nc2ccc(OC)c(OCC3CCN(CC4CC4)C3)c2)n1 (stereo not drawn) ... 0.1 to 1 µM
CNc1ccnc(Nc2ccc(OC)c(OCCCN3CC[C@H](F)C3)c2)n1 ... 1 to 10 µM
CNc1ccnc(Nc2cccc(COCCN3CCCC3)c2)n1 ... 1 to 10 µM
COc1cnc(Nc2nccc3[nH]ccc23)cc1OCCCN1CCCC1 ... < 0.1 µM
COc1ccc(Nc2nccc(N)n2)cc1OCCCN1CCCC1 ... 0.1 to 1 µM
CNc1cc(C)nc(Nc2ccc(OC)c(OC[C@H]3C[C@H](N(C)C)C3)c2)n1 ... > 10 µM

// `CNc1ccnc(Nc2ccc(OC)c(OCCCN3CCC4(COC4)C3)c2)n1` : IC50 value = > 10 µM

---

target entity: human EHMT2 913-1193 (Homo sapiens, UniProt Q96KQ7)
Construct: recombinant purified human EHMT2 913-1193, Viva; purchased Viva
experiment description: EHMT2 enzyme assay on histone peptide substrate (EHMT2 PEP)
Type: biochemical
details: Table II; read-out: EHMT2 PEP (IC50 μM)
value kind: IC50

Reference set (3 entries):
COc1ccc(Nc2nccc(N3CC(C(N)=O)C3)n2)cc1OCCCN1CCCC1 [Compound 179] ... > 10 µM
COc1ccc(Nc2nccc(N3CCS(=O)(=O)CC3)n2)cc1OCCCN1CCCC1 [Compound 169] ... > 10 µM
CCCCNc1nccc(NCC2CCCCC2)n1 [Compound 61] ... > 10 µM

State the recorded IC50 for every item in the following list.
1. CNc1nc(Nc2ccc(OC)c(OCCCN3CCCC3)c2)ncc1Cl [Compound 211]
2. COc1ccc(Nc2nccc(NCC3CCN(C(C)=O)CC3)n2)cc1OCCC(=O)N1CCCC1 [Compound 166]

Found:
1 to 10 µM
> 10 µM

State the recorded IC50 for every item in the following list.
1. CCCCNc1nccc(NC2CCC(NC(C)=O)CC2)n1 (stereo not drawn) [Compound 71]
2. COc1ccc(Nc2nccc(N3CCC(NC(C)=O)CC3)n2)cc1OCCCN1CCCC1 [Compound 161]
3. COc1ccc(Nc2nccc(N3CCN(C(C)=O)CC3)n2)cc1OCCCN1CCCC1 [Compound 139]
4. COc1ccc(Nc2nccc(NCC3CCCC3)n2)cc1OCCCN1CCCC1 [Compound 34]

Found:
1. > 10 µM
2. > 10 µM
3. > 10 µM
4. < 0.1 µM
